# Organism: Rattus norvegicus
# protocol.notes: Open TG-GATES - Regimen: Daily Repeat
# Format: toxicity, organism-based, Sprague-Dawley
# Design: regimen Daily Repeat, gender Male, age 6 weeks
# condition.notes: in vivo, po, 0 mg/kg, […], tissue Plasma, route gavage, dose level Control, time 14 day
K overview
Numeric only. Scale: meq/L

Below, 4 molecules whose answers are already recorded.
C#C[C@]1(O)CC[C@H]2[C@@H]3CCC4=Cc5oncc5C[C@]4(C)[C@H]3CC[C@@]21C [DANAZOL]	4.2
CN(C)[C@@H]1C(O)=C(C(N)=O)C(=O)[C@@]2(O)C(O)=C3C(=O)c4c(O)cccc4[C@@](C)(O)[C@H]3C[C@@H]12 [TETRACYCLINE]	4.7
CC(=O)Nc1nnc(S(N)(=O)=O)s1 [ACETAZOLAMIDE]	4.3
CCOC(=O)[C@H](CCc1ccccc1)N[C@@H](C)C(=O)N1CCC[C@H]1C(=O)O	4.4

Entry under test: Cc1cccc(Nc2ccccc2C(=O)O)c1C [MEFENAMIC ACID] . Its K was 3.9

Entry under test: C1CCC(C(CC2CCCCN2)C2CCCCC2)CC1 (stereo not given) [PERHEXILINE] . Its K was 4.2

Entry under test: CC(CN1c2ccccc2Sc2ccccc21)N(C)C (stereo not given) [PROMETHAZINE] . Its K was 4.3

---

# Species: Rattus norvegicus
# protocol.notes: Open TG-GATES - Regimen: Single
# Format: toxicity, organism-based, Sprague-Dawley
# Set-up: regimen Single, gender Male, age 6 weeks
# condition.notes: in vivo, po, 0 mg/kg, 24 h, tissue Blood, route gavage, dose level Control
Plat overview
Numeric only. Scale: x10_4/uL

Below, 5 molecules whose answers are already recorded.
Clc1c(Cl)c(Cl)c(Cl)c(Cl)c1Cl	129.9
CC(CN1c2ccccc2Sc2ccccc21)N(C)C (stereo unspecified)	131.7
C1CCC(C(CC2CCCCN2)C2CCCCC2)CC1 (stereo unspecified)	120.5
O=[N+]([O-])c1ccc2c(c1)Cc1ccccc1-2	121
CN(C)[C@@H]1C(O)=C(C(N)=O)C(=O)[C@@]2(O)C(O)=C3C(=O)c4c(O)cccc4[C@@](C)(O)[C@H]3C[C@@H]12	112.5

Entry under test: CN1C(C(=O)Nc2ccccn2)=C(O)c2sc(Cl)cc2S1(=O)=O . Its Plat was 133.9

Entry under test: Cc1cccc(Nc2ccccc2C(=O)O)c1C . Its Plat was 116.5

Entry under test: COc1cc([C@@H]2c3cc4c(cc3[C@@H](O[C@@H]3O[C@@H]5CO[C@@H](C)O[C@H]5[C@H](O)[C@H]3O)[C@H]3COC(=O)[C@H]23)OCO4)cc(OC)c1O [ETOPOSIDE] . Its Plat was 107.4

---

# Organism: Rattus norvegicus
# protocol.notes: Open TG-GATES - Regimen: Daily Repeat
# Format: toxicity, organism-based, Sprague-Dawley
# Design: regimen Daily Repeat, gender Male, age 6 weeks
# condition.notes: in vivo, po, 0 mg/kg, 72 h, tissue Blood, route gavage, dose level Control, time 3 day
Plat overview
Numeric only. Scale: x10_4/uL

Below, 6 molecules whose answers are already recorded.
Cc1cccc(Nc2ccccc2C(=O)O)c1C	118.8
CN(C)[C@@H]1C(O)=C(C(N)=O)C(=O)[C@@]2(O)C(O)=C3C(=O)c4c(O)cccc4[C@@](C)(O)[C@H]3C[C@@H]12	96.9
CCOC(=O)[C@H](CCc1ccccc1)N[C@@H](C)C(=O)N1CCC[C@H]1C(=O)O	123.1
O=C(O)Cc1ccccc1Nc1c(Cl)cccc1Cl	120.1
CC(CN1c2ccccc2Sc2ccccc21)N(C)C (centres undefined)	117
C1CCC(C(CC2CCCCN2)C2CCCCC2)CC1 (centres undefined)	133

Entry under test: Clc1c(Cl)c(Cl)c(Cl)c(Cl)c1Cl . Its Plat was 98.6

Entry under test: C#C[C@]1(O)CC[C@H]2[C@@H]3CCC4=Cc5oncc5C[C@]4(C)[C@H]3CC[C@@]21C . Its Plat was 120.7

Entry under test: CN1C(C(=O)Nc2ccccn2)=C(O)c2sc(Cl)cc2S1(=O)=O . Its Plat was 126.1
